Test: NCI Yeast Anticancer Drug Screen. Data for the sgs1 mgt1 strain (AID 161);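 note: 0% = growth of cultures given vehicle only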
Settings: S. cerevisiae sgs1 mgt1 strain, at 5.0 µM (retest, dose inferred, filed as 0.5), stronger effect = higher value
About 79,000 compounds went through this panel and 15% of them were active in at least one assay; those are over-represented in the sample as a whole.
The entries below are paired with their reported growth inhibition.
PARAMETER: growth inhibition (%)

{"COMPOUND": "CC(=O)c1ccc2sc3ccccc3c2c1", "PARAMETER": "growth inhibition", "MEASUREMENT": -59}
{"COMPOUND": "CCCOc1cc(C(=O)OCCN(CC)CC)cc(OCCC)c1OCCC", "PARAMETER": "growth inhibition", "MEASUREMENT": 4}
{"COMPOUND": "O=C(Nc1cccc2ccccc12)OCC1CCc2ccccc2C1 (configuration not stated)", "PARAMETER": "growth inhibition", "MEASUREMENT": -4}
{"COMPOUND": "O=C(C(=O)c1ccc(Cc2ccc(C(=O)C(=O)c3ccccc3)cc2)cc1)c1ccccc1", "PARAMETER": "growth inhibition", "MEASUREMENT": 1}
{"COMPOUND": "Cc1cccc2c1Oc1ccccc1C2N1C(=O)/C(=C/c2ccccc2Cl)SC1=S (configuration not stated)", "PARAMETER": "growth inhibition", "MEASUREMENT": 100}
{"COMPOUND": "COC(=O)C1C2CC3c4[nH]c5cc(OC)c(Br)cc5c4CCN3CC2CC(OC(=O)c2cc(OC)c(OC)c(OC)c2)C1OC (configuration not stated)", "PARAMETER": "growth inhibition", "MEASUREMENT": -5}
{"COMPOUND": "CC(C)N(CCO)CC(O)Cn1cnc2c(N)ncnc21 (configuration not stated) (tested in a mixture with another compound)", "PARAMETER": "growth inhibition", "MEASUREMENT": -14}
{"COMPOUND": "CCOC(=O)C(/C=N\\C(=S)Nc1ccc(Cl)c(Cl)c1)=C(/O)c1ccccc1", "PARAMETER": "growth inhibition", "MEASUREMENT": 11}
{"COMPOUND": "CCOc1ccc2nc3cc(Cl)ccc3[n+](C)c2c1", "PARAMETER": "growth inhibition", "MEASUREMENT": 15}
{"COMPOUND": "CCCCCCCCCCCC(=O)OCC1OC(OC)C(NC(=O)N(CCCl)N=O)C(O)C1O (configuration not stated)", "PARAMETER": "growth inhibition", "MEASUREMENT": 21}
{"COMPOUND": "O=C(O)CCSc1ncnc2nc[nH]c12", "PARAMETER": "growth inhibition", "MEASUREMENT": 0}
{"COMPOUND": "Brc1cc2c(c(Br)c1Br)C(Br)(Br)C(c1ccccc1)=N2", "PARAMETER": "growth inhibition", "MEASUREMENT": 25}
{"COMPOUND": "Cc1nc(-c2ccccc2)nc2c1nc(C(C)C)n2Nc1ccccc1", "PARAMETER": "growth inhibition", "MEASUREMENT": 0}
{"COMPOUND": "COc1ccc2c(c1)CC/C(=C\\c1ccc(OCCN(C)C)cc1)C2=O", "PARAMETER": "growth inhibition", "MEASUREMENT": 8}
{"COMPOUND": "COc1ccc(NC(=O)CCC(=O)C(C)C(=O)c2ccccc2)cc1 (configuration not stated)", "PARAMETER": "growth inhibition", "MEASUREMENT": 14}
{"COMPOUND": "S=c1[nH]c(-c2ccccc2)cs1", "PARAMETER": "growth inhibition", "MEASUREMENT": 0}
{"COMPOUND": "COc1ccc2cc(C3CCCC3(C)CC(=O)O)ccc2c1 (configuration not stated)", "PARAMETER": "growth inhibition", "MEASUREMENT": 4}
{"COMPOUND": "CCC[C@H]1[C@H](CCC)[C@@]2(OC(=O)C3=C2CCC=C3)[C@]12OC(=O)C1=C2CCC=C1", "PARAMETER": "growth inhibition", "MEASUREMENT": 3}
{"COMPOUND": "CCCC/C=C(/CCCCOCOCCOC)[Si](C)(C)C", "PARAMETER": "growth inhibition", "MEASUREMENT": -1}
{"COMPOUND": "C/C(=N\\NC(=S)N1CCCCCC1)c1cccc2cccnc12", "PARAMETER": "growth inhibition", "MEASUREMENT": 7}
{"COMPOUND": "O=S(=O)(CC(Br)CCl)c1ccccc1 (configuration not stated)", "PARAMETER": "growth inhibition", "MEASUREMENT": -1}
{"COMPOUND": "COc1ccc(C2SC(C)C(=O)N2c2nc(-c3nc(-c4ccc(Cl)cc4)cs3)cs2)cc1 (configuration not stated)", "PARAMETER": "growth inhibition", "MEASUREMENT": 5}

###

Assay: NCI Yeast Anticancer Drug Screen. Data for the mlh1 rad18 strain (AID 175)
Settings: S. cerevisiae mlh1 rad18 strain growth inhibition; at 5.0 µM (retest, dose inferred, filed as 0.5)
The panel holds about 79,000 compounds, 15% with a hit somewhere; the sample as a whole holds those more often. Activity calls are given as the source filed them. No stated cut-off is given here; in the data, active means growth inhibition above about 70%; inactive means the rest.
Possible outcomes: active, inactive

{"COMPOUND": "Oc1c(C(Nc2ccccn2)c2ccccc2)ccc2cccnc12 (configuration not stated)", "ASSIGNED_CATEGORY": "inactive"}
{"COMPOUND": "N#CC(C#N)=c1c2nsnc2c(=C(C#N)C#N)c2nsnc12", "ASSIGNED_CATEGORY": "inactive"}
{"COMPOUND": "CCCCCCCCCCCCCCCC(=O)N1CCOCC1", "ASSIGNED_CATEGORY": "inactive"}
{"COMPOUND": "CN(N(P(c1ccccc1)c1ccccc1)P(c1ccccc1)c1ccccc1)P(c1ccccc1)c1ccccc1", "ASSIGNED_CATEGORY": "inactive"}
{"COMPOUND": "CCC(/C=C/C(C)C1CCC2C3CC=C4C/C(=N/NC(N)=O)CCC4(C)C3CCC12C)C(C)C (configuration not stated)", "ASSIGNED_CATEGORY": "inactive"}
{"COMPOUND": "CCC(CC)=NNc1ccc([N+](=O)[O-])cc1", "ASSIGNED_CATEGORY": "inactive"}
{"COMPOUND": "COc1cccc2c1C(=O)c1c(O)c3c(c(O)c1C2=O)C[C@@](O)(C(=O)CO)C[C@@H]3OC1CC(N(C)C)C(O)C(C)O1 (some centres not stated)", "ASSIGNED_CATEGORY": "active"}
{"COMPOUND": "COC1CCC2(C)C(=CCC3C4CC(OC(C)=O)CC4(C)CCC32)C1 (configuration not stated)", "ASSIGNED_CATEGORY": "inactive"}
{"COMPOUND": "CC(=O)Oc1cccc2c1C(=O)C(Br)(Br)CCC2", "ASSIGNED_CATEGORY": "active"}
{"COMPOUND": "COC(=O)c1nnn(-c2cc(Cl)ccc2Cl)c1C(=O)c1ccc(Cl)c(Cl)c1", "ASSIGNED_CATEGORY": "inactive"}
{"COMPOUND": "CCCCCCC(=O)Nc1ccc(OC(=O)CCCCCC)c(=O)cc1", "ASSIGNED_CATEGORY": "inactive"}
{"COMPOUND": "CC(=O)NC(C)(C)C1CCC(C)=C(c2ccccc2)C1 (configuration not stated)", "ASSIGNED_CATEGORY": "inactive"}
{"COMPOUND": "O=C(Nc1ccc([N+](=O)[O-])cc1[N+](=O)[O-])C(=O)C(C(=O)c1ccc(Cl)c(Cl)c1)C1OC(=O)c2ccccc21 (configuration not stated)", "ASSIGNED_CATEGORY": "inactive"}
{"COMPOUND": "Cc1ccc2ccc(C(Nc3ccccc3)c3ccncc3)c(O)c2n1 (configuration not stated)", "ASSIGNED_CATEGORY": "inactive"}
{"COMPOUND": "CCC(c1ccc(O)cc1)C(O)(CC)c1ccc(O)cc1 (configuration not stated)", "ASSIGNED_CATEGORY": "inactive"}
{"COMPOUND": "CC(=O)c1c(O)c(C)c(O)c2c1OC1=CC(=O)c3c(C)noc3C12C (configuration not stated)", "ASSIGNED_CATEGORY": "inactive"}
{"COMPOUND": "CCN(CC)CCCC(C)Nc1cc(F)cc2cccnc12 (configuration not stated)", "ASSIGNED_CATEGORY": "inactive"}
{"COMPOUND": "O=C(O)/C(Cl)=C(/Cl)C(=O)Nc1cccc(Cl)c1", "ASSIGNED_CATEGORY": "inactive"}
{"COMPOUND": "O=C(O)CCSc1ncnc2nc[nH]c12", "ASSIGNED_CATEGORY": "inactive"}
{"COMPOUND": "O=S(=O)(O)CNc1cc(Cl)cc(Cl)c1", "ASSIGNED_CATEGORY": "inactive"}
{"COMPOUND": "CC(=O)NC1=C(Cl)C(=O)c2ccccc2C1=O", "ASSIGNED_CATEGORY": "active"}
{"COMPOUND": "O=C(c1cccs1)N(C(=S)N1CCN(c2ccccn2)CC1)c1ccccc1", "ASSIGNED_CATEGORY": "inactive"}
